# protocol details: Human liver microsome (HLM) metabolic stability assay
# Format: in vitro ADME
# experimental conditions: human liver microsomes
recorded endpoint: Metabolic stability (Qh %), % hepatic blood flow
State just the number; it will be interpreted in %.

Per the records, this compound ( Cc1ccc(OCc2ccc3c(c2C)CCN(C2CCCOC2)C3)c(-c2csc(N3CC[C@@]4(C(=O)O)C[C@H]4C3)n2)c1 (stereo partly shown) [Compound 118] ) has Metabolic stability (Qh %), % hepatic blood flow equal to 34

Per the records, this compound ( Cc1c(COc2ccccc2-c2cccc(N3CC[C@@]4(C(=O)O)C[C@H]4C3)n2)ccc2c1CCN(C[C@@H]1COCCO1)C2 [Compound 10] ) has Metabolic stability (Qh %), % hepatic blood flow equal to 32

Per the records, this compound ( CO[C@H]1CN(c2cccc(-c3cccc(C)c3OCc3ccc4c(c3)CCN(C3CCOCC3)C4)n2)CC[C@H]1C(=O)O [Compound 64] ) has Metabolic stability (Qh %), % hepatic blood flow equal to 29

====

Can you tell me pEC50 for the items I'm about to list?
# target entity: human soluble guanylate cyclase alpha 1 and beta 1 subunits (sGC) (Homo sapiens (Human), UniProt Q02108+Q02153)
# Sequence (Q02108 whole entry partner): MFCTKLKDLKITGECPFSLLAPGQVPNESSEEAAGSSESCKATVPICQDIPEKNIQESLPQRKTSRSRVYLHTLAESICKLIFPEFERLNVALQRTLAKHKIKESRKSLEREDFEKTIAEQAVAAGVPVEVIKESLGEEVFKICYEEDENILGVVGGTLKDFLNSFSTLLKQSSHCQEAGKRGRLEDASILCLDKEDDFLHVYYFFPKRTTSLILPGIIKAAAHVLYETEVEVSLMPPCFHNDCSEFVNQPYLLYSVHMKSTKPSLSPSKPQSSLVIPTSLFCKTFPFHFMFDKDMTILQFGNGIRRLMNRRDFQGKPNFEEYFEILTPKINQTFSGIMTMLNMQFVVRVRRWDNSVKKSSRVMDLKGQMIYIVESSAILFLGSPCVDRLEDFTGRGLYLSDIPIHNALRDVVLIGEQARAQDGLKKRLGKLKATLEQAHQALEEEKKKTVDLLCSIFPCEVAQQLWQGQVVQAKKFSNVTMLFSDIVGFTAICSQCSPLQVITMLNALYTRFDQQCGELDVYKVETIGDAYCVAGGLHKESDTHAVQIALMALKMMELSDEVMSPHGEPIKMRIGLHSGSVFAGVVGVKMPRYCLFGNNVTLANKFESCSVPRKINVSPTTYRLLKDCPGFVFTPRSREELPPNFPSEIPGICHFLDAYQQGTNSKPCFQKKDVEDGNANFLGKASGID
# Sequence (Q02153 whole entry): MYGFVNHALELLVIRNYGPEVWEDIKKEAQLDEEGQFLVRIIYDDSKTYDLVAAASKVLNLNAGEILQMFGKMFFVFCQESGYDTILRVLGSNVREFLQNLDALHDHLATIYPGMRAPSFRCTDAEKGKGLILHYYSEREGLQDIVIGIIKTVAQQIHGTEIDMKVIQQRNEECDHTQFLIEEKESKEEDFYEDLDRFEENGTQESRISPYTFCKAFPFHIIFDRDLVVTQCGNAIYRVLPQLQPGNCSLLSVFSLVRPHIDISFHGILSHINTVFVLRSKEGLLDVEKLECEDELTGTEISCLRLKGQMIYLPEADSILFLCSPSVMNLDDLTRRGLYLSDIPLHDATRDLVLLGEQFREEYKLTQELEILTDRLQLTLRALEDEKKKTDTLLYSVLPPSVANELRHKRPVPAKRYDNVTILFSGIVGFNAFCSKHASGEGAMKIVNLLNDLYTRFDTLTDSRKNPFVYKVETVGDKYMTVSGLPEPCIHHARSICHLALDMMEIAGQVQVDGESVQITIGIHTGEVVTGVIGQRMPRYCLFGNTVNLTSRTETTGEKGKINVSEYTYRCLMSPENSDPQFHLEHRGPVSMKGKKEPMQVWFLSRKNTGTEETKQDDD
# protocol details: sGC cellular activator assay (cGMP, HTRF), in the presence and absence of 50% human serum
# experimental conditions: CHO cells stably expressing human sGC alpha 1/beta 1, preincubated with 40 microM ODQ; cGMP by HTRF; Table 2 does not state whether with or without 50% human serum
A value of pEC50 is the negative decimal logarithm of a concentration given in moles per litre.

Per the records, this compound ( Cc1cc(COc2c(C)cccc2-c2csc(N3CC[C@@]4(C(=O)O)C[C@H]4C3)n2)cc2c1CN(C1CCCOC1)CC2 (some centres unmarked) [Compound 94] ) has pEC50 equal to 8.52

Per the records, this compound ( COCC(C)N1CCc2c(ccc(COc3ccccc3-c3cccc(N4CC[C@@]5(C(=O)O)C[C@H]5C4)n3)c2C)C1 (some centres unmarked) [Compound 310] ) has pEC50 equal to 8.30

Per the records, this compound ( CO[C@H]1CN(c2nc(-c3cccc(Cl)c3OCc3ccc4c(c3)CCN(C3CCOCC3)C[C@H]4C)cs2)CC[C@H]1C(=O)O [Compound 333] ) has pEC50 equal to 8.00

Per the records, this compound ( COCc1cc(COc2c(C)cccc2-c2cccc(N3CC[C@H](C(=O)O)[C@H](OC)C3)n2)cc2c1CN(C1COC1)CC2 [Compound 285] ) has pEC50 equal to 6.44

Per the records, this compound ( Cc1ccc(OCc2cc(C)c3c(c2C)CCN(C2CCCOC2)C3)c(-c2csc(N3CC[C@@]4(C(=O)O)C[C@H]4C3)n2)c1 (some centres unmarked) [Compound 128] ) has pEC50 equal to 8.05

Per the records, this compound ( CO[C@@H]1CN(c2nc(-c3cccc(C)c3OCc3ccc4c(c3F)CCN(C3COC3)CC4)cs2)CC[C@@H]1C(=O)O [Compound 267] ) has pEC50 equal to 8.15

Per the records, this compound ( COc1cc(COc2ccc(C)cc2-c2csc(N3CC[C@@H](C(=O)O)[C@@H](OC)C3)n2)cc2c1CN(C1CCOCC1)CC2 [Compound 254] ) has pEC50 equal to 7.85

Per the records, this compound ( Cc1ccc(OCc2ccc3c(c2)CCN(C2CCOC2)C3)c(-c2csc(N3CC[C@@]4(C(=O)O)C[C@H]4C3)n2)c1 (some centres unmarked) [Compound 114] ) has pEC50 equal to 8.15

Per the records, this compound ( COC[C@@H]1N(c2cccc(-c3cccc(C)c3OCc3cc(C)c4c(c3)CCN(C3CCOCC3)C4)n2)C[C@H]2C[C@]21C(=O)O [Compound 63] ) has pEC50 equal to 7.02

Per the records, this compound ( Cc1ccc(OCc2ccc3c(c2C)CCN(C2CCOCC2)C3)c(-c2csc(N3C[C@@H]4C[C@]4(C(=O)O)C3)n2)c1 [Compound 146] ) has pEC50 equal to 7.24

Per the records, this compound ( CO[C@H]1CN(c2nc(-c3cc(C)ccc3OCc3cc(C)c4c(c3C)CCN(C3CCOCC3)C4)cs2)CC[C@H]1C(=O)O [Compound 181] ) has pEC50 equal to 7.64

Per the records, this compound ( COC[C@H]1N(c2cccc(-c3cccc(C)c3OCc3cc(C)c4c(c3)CCN(C3CCOC3)C4)n2)C[C@@H]2C[C@@]21C(=O)O (single isomer, unassigned) [Compound 52] ) has pEC50 equal to 7.92

Per the records, this compound ( Cc1ccc(OCc2ccc3c(c2)CCN(C2CCOCC2)C3=O)c(-c2csc(N3CC[C@@]4(C(=O)O)C[C@H]4C3)n2)c1 [Compound 192] ) has pEC50 equal to 7.54

Per the records, this compound ( Cc1cccc(-c2cccc(N3C[C@@H]4C[C@]4(C(=O)O)C3)n2)c1OCc1ccc2c(c1C)CCN(C1CCOCC1)CC2 [Compound 33] ) has pEC50 equal to 8.40

Per the records, this compound ( CCO[C@@H]1CN(c2nccc(-c3cccc(C)c3OCc3cc(C)c4c(c3)CCN(C3CCOCC3)C4)n2)CC[C@@H]1C(=O)O [Compound 247] ) has pEC50 equal to 6.18

Per the records, this compound ( CCO[C@@H]1CN(c2cccc(-c3cccc(Cl)c3OCc3cc4c(c(OC)c3)CN(C3CCOCC3)CC4)n2)CC[C@@H]1C(=O)O [Compound 260] ) has pEC50 equal to 7.25

Per the records, this compound ( Cc1ccc(OCc2ccc3c(c2C)CCN(C2CCOCC2)C3)c(-c2csc(N3C[C@@H]4C[C@]4(C(=O)O)[C@H]3C)n2)c1 [Compound 154] ) has pEC50 equal to 8.40

Per the records, this compound ( CCc1cc(COc2c(C)cccc2-c2cccc(N3C[C@@H]4C[C@]4(C(=O)O)[C@H]3COC)n2)cc2c1CN(CC1COCCO1)CC2 (some centres unmarked) [Compound 56] ) has pEC50 equal to 7.59

Per the records, this compound ( CO[C@H]1CN(c2nc(-c3cccc(Cl)c3OCc3ccc4c(c3C)CCN(C3CCOCC3)C4)cs2)CC[C@H]1C(=O)O [Compound 207] ) has pEC50 equal to 8.10

Per the records, this compound ( COCc1cc(COc2c(C)cccc2-c2cccc(N3C[C@@H]4C[C@]4(C(=O)O)[C@H]3COC)n2)cc2c1CN(C1CCOC1)CC2 (some centres unmarked) [Compound 280] ) has pEC50 equal to 6.85
